Please respond with reported Kd for every item in the list.
molecular target: DLG4-1 (human, UniProt P78352 65-151); assay: holdup assay; biotinylated PBM peptide saturating streptavidin resin (biotin resin as reference); tag-PDZ at 4 uM in crude E. coli lysate, 15 min, filtration, free tag-PDZ by capillary electrophoresis; singlicate; BI cut-off 0.20; BI converted into KD with the peptide concentration back-calculated from FP; settings: one partner purified
Sequence (P78352 65-151, looked up): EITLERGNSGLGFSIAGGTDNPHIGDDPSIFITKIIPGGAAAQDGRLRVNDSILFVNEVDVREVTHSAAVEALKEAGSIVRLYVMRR
Where no end group is shown, it is not given here. The star is where a group is joined. Biotin = O=C1N[C@H]2[C@H](CS[C@H]2CCCCC(=O)*)N1; TTDS = NCCCOCCOCCOCCCNC(=O)CCC(=O)*
Answers are plain numbers, in µM.

// solved cases for Kd follow
binder="{Biotin-TTDS}-DEDQHTQITK(Ac)V (peptide, UniProt P60484 393-403, looked up, also called acetylated version of PTEN_11; acetylated peptide; source: synthetic peptide (Chemical Peptide Synthesis Service of the IGBMC, Fmoc)) [PTEN_Ac]" quantity_measured=Kd unit_text=µM val=155
binder="{Biotin-TTDS}-DEDQHTQITRV (peptide, UniProt P60484 393-403, looked up, also called K402R mutant; source: synthetic peptide (Chemical Peptide Synthesis Service of the IGBMC, Fmoc)) [PTEN_KR]" quantity_measured=Kd unit_text=µM val=81

Next item in the queue.
query: Entry {Biotin-TTDS}-DEDQHTQITKV (peptide, UniProt P60484 393-403, looked up, also called 11-mer wild-type PTEN PBM peptide; native PTEN_11 PBM; source: synthetic peptide (Chemical Peptide Synthesis Service of the IGBMC, Fmoc)) [PTEN_11] : reported Kd = ?
result: 293
